FYI, the data here is from ChEMBL document CHEMBL5370598.

Target: UniProt P50391
Assay: Displacement of [3H]UR-KK200 from human Y4R expressed in CHO cells co-expressing Gqi5-mtAEQ
Type: cell-based
Conditions: read-out: Ki
Assay Endpoint: Ki (nM)

[I] CC(C)C[C@H](NC(=O)[C@@H]1CCCN/C(N)=N/C(=O)NCCCCNC(=O)[C@H](N)CC(=O)N[C@@H](CCCNC(=N)N)C(=O)N[C@@H](Cc2ccc(O)cc2)C(=O)N1)C(=O)N[C@@H](CCCNC(=N)N)C(=O)N[C@@H](Cc1ccc(O)cc1)C(N)=O
[II] CCC(=O)N[C@@H]1CC(=O)N[C@@H](CCCNC(=N)N)C(=O)N[C@@H](Cc2ccc(O)cc2)C(=O)N[C@H](C(=O)N[C@@H](CC(C)C)C(=O)N[C@@H](CCCNC(=N)N)C(=O)N[C@@H](Cc2ccc(O)cc2)C(N)=O)CCCN/C(N)=N/C(=O)NCCCCNC1=O
Ask: Higher Ki: I or II ? Answer by stating the label of the chosen item.
Result: II

* * *

Target: Neuropeptide Y receptor type 4 (Homo sapiens, UniProt P50391)
Sequence (P50391 whole entry): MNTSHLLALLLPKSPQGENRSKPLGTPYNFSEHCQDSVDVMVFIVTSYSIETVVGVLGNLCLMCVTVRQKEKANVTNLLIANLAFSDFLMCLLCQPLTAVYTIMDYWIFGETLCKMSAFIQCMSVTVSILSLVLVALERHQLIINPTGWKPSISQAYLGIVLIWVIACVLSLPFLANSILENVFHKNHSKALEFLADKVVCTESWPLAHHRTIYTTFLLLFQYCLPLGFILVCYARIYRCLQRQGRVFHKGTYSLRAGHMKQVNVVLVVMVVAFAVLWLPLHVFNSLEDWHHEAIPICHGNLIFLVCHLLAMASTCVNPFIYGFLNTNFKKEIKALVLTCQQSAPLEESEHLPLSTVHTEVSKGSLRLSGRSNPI
Assay: Displacement of [3H]UR-KK200 from human Y4R expressed in CHO cells co-expressing Gqi5-mtAEQ
Type: cell-based
Details: read-out: Ki
pKi: −log10 of the molar value. Starred links: 1 amine or outer side, 2 acyl side, 3 side chain; linkers in the order of their positions; H or OH if unused. Positions of bridges follow the written chain, without caps; N, C: chain ends. Non-standard residues stand in square brackets, D forms with d. Residues, ends and D or L forms follow the SMILES beside them. Arg(Nω-CO) = N/C(=N\C(=O)[*:3])NCCC[C@H](N[*:1])C(=O)[*:2]; Ethylenediamine = C(CN[*:2])N[*:1]
Assay Endpoint: pKi

Please review the following examples before continuing.
Compound	pKi
CC(C)C[C@H](NC(=O)[C@@H]1CCCN/C(N)=N/C(=O)NCCCCNC(=O)[C@H](NC(=O)CCCN)CC(=O)N[C@@H](CCCNC(=N)N)C(=O)N[C@@H](Cc2ccc(O)cc2)C(=O)N1)C(=O)N[C@@H](CCCNC(=N)N)C(=O)N[C@@H](Cc1ccc(O)cc1)C(N)=O	10.03
CCC(=O)N[C@@H]1CC(=O)NCCCCNC(=O)/N=C(\N)NCCC[C@@H](C(=O)N[C@@H](CC(C)C)C(=O)N[C@@H](CCCNC(=N)N)C(=O)N[C@@H](Cc2ccc(O)cc2)C(N)=O)NC(=O)[C@H](Cc2ccc(O)cc2)NC(=O)[C@H](CCCNC(=N)N)NC1=O	9.92
CCC(=O)NCCCC(=O)N[C@@H]1CC(=O)N[C@@H](CCCNC(=N)N)C(=O)N[C@@H](Cc2ccc(O)cc2)C(=O)N[C@H](C(=O)N[C@@H](CC(C)C)C(=O)N[C@@H](CCCNC(=N)N)C(=O)N[C@@H](Cc2ccc(O)cc2)C(N)=O)CCCN/C(N)=N/C(=O)NCCCCNC1=O.O=C(O)C(F)(F)F.O=C(O)C(F)(F)F.O=C(O)C(F)(F)F	10.44
CCC(=O)N[C@H]1CC(=O)NCCCCNC(=O)/N=C(\N)NCCC[C@@H](C(=O)N[C@@H](CC(C)C)C(=O)N[C@@H](CCCNC(=N)N)C(=O)N[C@@H](Cc2ccc(O)cc2)C(N)=O)NC(=O)[C@H](Cc2ccc(O)cc2)NC(=O)[C@H](CCCNC(=N)N)NC1=O	9.96
CC(C)C[C@H](NC(=O)[C@@H]1CCCN/C(N)=N/C(=O)NCCNC(=O)CC[C@H](N)C(=O)N[C@@H](CCCNC(=N)N)C(=O)N[C@@H](Cc2ccc(O)cc2)C(=O)N1)C(=O)N[C@@H](CCCNC(=N)N)C(=O)N[C@@H](Cc1ccc(O)cc1)C(N)=O (H-ERY[Arg(Nω-CO)]LRY-NH2; linker 1-4 via Ethylenediamine)	9.77
CC(C)C[C@H](NC(=O)[C@@H]1CCCN/C(N)=N/C(=O)NCCCCNC(=O)C[C@@H](N)C(=O)N[C@@H](CCCNC(=N)N)C(=O)N[C@@H](Cc2ccc(O)cc2)C(=O)N1)C(=O)N[C@@H](CCCNC(=N)N)C(=O)N[C@@H](Cc1ccc(O)cc1)C(N)=O	10.51

[P] CC(C)C[C@H](NC(=O)[C@@H]1CCCN/C(N)=N/C(=O)NCCCCNC(=O)C[C@H](N)C(=O)N[C@@H](CCCNC(=N)N)C(=O)N[C@@H](Cc2ccc(O)cc2)C(=O)N1)C(=O)N[C@@H](CCCNC(=N)N)C(=O)N[C@@H](Cc1ccc(O)cc1)C(N)=O
[Q] CCC(=O)N[C@H]1CC(=O)N[C@@H](CCCNC(=N)N)C(=O)N[C@@H](Cc2ccc(O)cc2)C(=O)N[C@H](C(=O)N[C@@H](CC(C)C)C(=O)N[C@@H](CCCNC(=N)N)C(=O)N[C@@H](Cc2ccc(O)cc2)C(N)=O)CCCN/C(N)=N/C(=O)NCCCCNC1=O
Ask: Hi, I'm comparing P with Q and wondering which one has the bigger number for pKi. Any idea? Kindly give the label for the entry you pick.
Result: Q
(Q: 9.82, P: 9.48)
